system: gene editing with Cas9; assay: Screen of 322 new SSAP proteins, gene editing activity with Cas9 (Table 5); assay type: cell-based; settings: normalized
endpointLabel: Cas9 with SSAP activity (normalized)
The reply should be a number, written without any unit.

molecule | Cas9 with SSAP activity (normalized)
SSAP_72: SEQ ID NO: 241 (protein) ATNSSLKNQLSKKENVTIGNTMQGLLNNPKMKKRFEEILDKKAPQYMSSILNLYNGDTSLQKCEPMSVLSSSMIAATMDLPVDKNLGYAWIVPYKNKAQFQMGYKGYIQLALRTGQYKHINAIEIHEGELVNWNPLTEELEIDFTKKESDKIIGYAGYFELLNGFKKSTYWTKTQIENHRKKFSKSDYGWNKDFDAMAIKTVIRNMLSKWGILSIEMQNAYTADENIIKDSFIDDSENVSANIEDLVEADYTVNQDSLESKEEFEGTPLE | 0.895

Consider the molecule SSAP_218: SEQ ID NO: 387; Streptococcus lutetiensis (protein, listed as Streptococcus lutetiensis) ANQLQMSHKDFFNRPAVKNKFSEVVSGKSDQFITSLLSVVNNNKLLSKADNNSILNAAMKAATLNLPIEPSLGSAYIVPFKGQAQFQLGYKGLIELAQRSGQYKSINAGVVYKAQFKSYDPLFETLDLDFNQPQDEVIGYFACFELLNGFRKITYWTREEVYNHGKRFSKSFNNGPWKTDFDAMAKKTLLKSIIGTYGPKSVDMQEAITDDNKTEYEKAEPIDVTPQEENLTDLIGETPQEELPIANPETGEIQEEQTALFNQLGDLTDD and give its measured Cas9 with SSAP activity (normalized).
−1.680

Same read-out for SSAP_296: SEQ ID NO: 465; Peptostreptococcaceae bacterium VA2 (protein, Peptostreptococcaceae bacterium VA2) QPFLVQRYPHLDVVLNDQVHVLKSFFFQNHIILYLYKYIECLQIFHKPLLKGDRGKVIGYYAVYHLEPNGYNFVFMTYDEVKNHGKKYSKNFEGGIWEKEFDSMAKKTVIKKLLKYAPLSIEMQKAVTFDESVKGSIDNDMLLVESIEDVEEIQLDTNI ?
0.617
